# Target or system: T1, Human IL-11 (human, UniProt P20809 22-199)
# T1 construct: Recombinant human IL-11 (GenScript Cat. No. Z03108-1) or IL-11 secreted by human cells; the mature form is said to have 178 residues; also called recombinant human IL-11; endogenously produced IL-11
# T1 sequence: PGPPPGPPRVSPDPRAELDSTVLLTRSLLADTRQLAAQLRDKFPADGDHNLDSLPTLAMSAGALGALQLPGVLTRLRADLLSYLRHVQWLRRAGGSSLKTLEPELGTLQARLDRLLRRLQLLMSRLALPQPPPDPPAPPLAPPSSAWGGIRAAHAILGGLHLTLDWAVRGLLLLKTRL
# Assay method text: ELISA
Endpoint label: hIL11 - average signal
Lab note: jot the number down without any unit.

Solved cases (5 shown):
YU100-B09 (antibody, V domains shown) VH: QVQLVQSGGGVVQPGRSLRLSCAASGFTFSSYGMHWVRQAPGKGLEWVAVISYDGSNKYYADSVKGRFTISRDNSKNTLYLQMNSLRAEDTAVYYCAKIGATDPLDYWGQGTLVTVSS	0.21
YU100-H05 (antibody) QVQLVESGGGVVQPGRSLRLSCAASGFTFSSYGMHWVRQAPGKGLEWVAVISYDGSNKYYADSVKGRFTISRDNSKNTLYLQMNSLRAEDTAVYYCAKIGATDPLDYWGQGTLVTVSSGSASAPKLEEGEFSEARVQAVLTQPRSVSGSPGQSITISCTGTGSNVGGYNYVSWYQQHPGQAPKLMIYDVSKRPSGVPDRFSGSKSGNTASLTISGLQAEDEADYYCCSYAGTYTWVFGGGTKLTVL	0.163
YU100-B07 (antibody) QVQLVESGGGVVQPGRSLRLSCAASGFTFSSYGMHWVRQAPGKGLEWVAVISYDGSNKYYADSVKGRFTISRDNSKNTLYLQMNSLRAEDTAVYYCAKIGATDPLDYWGQGTLVTVSSGSASAPKLEEGEFSEARVQSALTQPRSVSGSPGQSVTMSCTGTSRDVGGYNYVSWYQHHPGKAPKLMIYDVSKRPSGVPDRFSGSKSGNTASLTISELQAEDEADYYCCSYAGSYTWVFGGGTKLTVL	0.167
YU100-B08 (antibody) EVQLVQSGGGVVQPGRSLRLSCAASGFTFSSYGMHWVRQAPGKGLEWVAVISYDGSNKYYADSVKGRFTISRDNSKNTLYLQMNSLRAEDTAVYYCAKIGATDPLDYWGQGTLVTVSSGSASAPKLEEGEFSEARVQSALTQPASVSGSPGQSITISCTGTSSDVGGYNYVSWYQQHPGKVPRLLIYDVSNRPSGVSTRFSGSKSGNTASLTISGLQGEDEAEYYCSSFTSSTTWVFGGGTKLTVL	0.209
YU112-E07 (antibody) QVQLVQSGGGVVQPGRSLRLSCAASGFTFGSYGMHWVRQAPGKGLEWVAVISYDGSNKYYADSVKGRFTISRDNSKNTLYLQMNSLRAEDTAVYYCAKGSYYFDYWGQGTLVTVSSGSASAPKLEEGEFSEARVEIVMTQSPDSLAVSLGERATINCKSSQSVNSAYLAWYQHKPGQPPRLLIYGASRRVTGVPDRFSGSGSGTDFTLTISSLQPEDFATYYCQQSYSDPRWTFGQGTKVEIK	0.71

API: the following record is the query input.
## Input Requested field: hIL11 - average signal. Item: YU100-F11 (antibody, V domains shown, light chain-shuffled human anti-IL-11 clone) VH: QVQLVESGGGVVQPGRSLRLSCAASGFTFSSYGMHWVRQAPGKGLEWVAVISYDGSNKYYADSVKGRFTISRDNSKNTLYLQMNSLRAEDTAVYYCAKIGATDPLDYWGQGTLVTVSS VL: QSALTQPASVSGSPGQSITISCTGSSSDVAGYNYVSWYQQHPGKAPKLMIYDVTKRPSGVPDRFSGSKSGNTASLTISGLQAEDEADYYCCSYAGSYTWVFGGGTQLTVLG
## Output 0.319
